# composite z-score annotations
ASSAY_NOTES: small molecules captured by biotinylated probe aFST – biochemical, small-molecule microarray, fluorescence 635/667, stem cell growth factor project, primary screen (AID 1086);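 note: score merges 667 nm fluorescence with signal-to-noise of each printed compound spot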
EXPERIMENTAL_SETUP: higher = more signal

In: Give the measured composite z-score of O=C(NCC(O)CO)C1N=C(c2ccc(OCCCO)cc2)N(c2ccccc2)O1 (stereo not given) .
Out: -0.282

In: What composite z-score value was documented for this molecule, COc1ccc(C(O)C2C=CC3C(=O)NC(=O)C3N2Nc2ccc(Cl)cc2Cl)c2ccccc12 (stereo not given) ?
Out: 0.951

In: Field request: composite z-score | item: C=C(CCCC)C(=O)CC[C@H](OC(=O)c1ccccc1-c1ccccc1C(=O)O)c1ccc(OCCO)cc1
Out: 0.393

* * *

ASSAY_NOTES: JC-1 mitochondrial signal, unstimulated HepG2 cells – cell-based, JC-1 fluorescence, 24 h, 100 nL compound, profiling panel (AID 1167); note: test concentration not given here
EXPERIMENTAL_SETUP: HepG2 mitochondrial potential, higher = more signal
Kindly return 1 if reported z-score is no lower than 0.4; return 0 if it is lower.

{"columns": ["MOLECULE", "LABEL"],
 "data": [
  ["CC(C)C(CO)N1C(=O)[C@@H]2C3C(=O)OCCC/C=C\\[C@H]3OC23C=CCN(Cc2ccccc2)C(=O)[C@@H]13 (stereo partly specified)", 0],
  ["C=CCC(OC(C)=O)[C@@H]1[C@@H](N(Cc2ccc(-c3cccc(C(F)(F)F)c3)o2)C(=O)Cc2ccc(F)cc2)c2cc(OCCCO)ccc2N1C(=O)Cc1ccc2ccccc2c1 (stereo partly specified)", 1],
  ["COCCOC(=O)N1C(=O)[C@@]2(c3cc(C#CCCO)ccc31)[C@H](c1ccccc1OCCO)N1[C@H](c3ccccc3)[C@H](c3ccccc3)OC(=O)[C@H]1[C@@H]2C(N)=O", 1],
  ["COC(=O)C(CC#Cc1ccc2c(c1)[C@]1(C(=O)N2)[C@H](c2ccccc2OCCO)N2[C@H](c3ccccc3)[C@H](c3ccccc3)OC(=O)[C@H]2[C@@H]1C(=O)N1CCc2cc(OC)c(OC)cc2C1)C(=O)OC", 0]
]}

Proceed to the following item.
In: Decide: is the reported value of z-score for O=C(NC1CC1)[C@@H]1c2ccccc2C(=O)N(Cc2cc(C(F)(F)F)cc(C(F)(F)F)c2)[C@H]1c1ccc(CO)cc1 equal to or greater than 0.4?
Out: 1

* * *

MEASUREMENT_TARGET: Fibroblast growth factor 10 (Homo sapiens)
ASSAY_NOTES: compounds binding fibroblast growth factor 10 – biochemical, small-molecule microarray, 635 nm fluorescence, primary screen (AID 1102)
EXPERIMENTAL_SETUP: FGF10 binding, fluorescence 635 nm, higher = more signal
RECORDED_ENDPOINT: composite z-score

In: Param item = NC(=O)NCC#Cc1ccc2c(c1)[C@]1(C(=O)N2)[C@H](c2ccc(OCCO)cc2)N2[C@H](c3ccccc3)[C@H](c3ccccc3)OC(=O)[C@H]2[C@@H]1C(=O)O ; retrieve measured composite z-score.
Out: -0.808

In: Entry under review: COc1ccc(C(O)C2C=CC3C(=O)NC(=O)C3N2Nc2ccc(Cl)cc2Cl)c2ccccc12 (stereo not drawn) . Reported composite z-score?
Out: 0.0892

In: What does the data say about its composite z-score? Entry: CC1CC/C=C\[C@H]2OC34C=CCN(Cc5ccccc5)C(=O)[C@H]3N(CCCCCCO)C(=O)[C@@H]4C2C(=O)O1 (stereo partly drawn)
Out: -0.965

In: What composite z-score value was documented for this compound, NCCCCCCNC(=O)[C@@H]1C[C@@H]2C(=O)N3CCC[C@H]3C(=O)N2[C@@H]1c1cccc(OCCO)c1 ?
Out: 0.752
